Target: T1, TNF-beta (human, UniProt P01374 35-205)
T1 construct: also called TNFβ; Tumour Necrosis Factor-beta
T1 sequence (looked up): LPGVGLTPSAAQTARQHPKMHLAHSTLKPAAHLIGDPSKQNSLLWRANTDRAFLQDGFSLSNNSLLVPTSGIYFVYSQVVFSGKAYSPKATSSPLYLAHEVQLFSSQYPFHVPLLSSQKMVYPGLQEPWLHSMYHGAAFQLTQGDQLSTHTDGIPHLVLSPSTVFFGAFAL
Test: phage ELISA
ENDPOINT_LABEL: binding result

INSERT INTO measurements (binder, result) VALUES
  ('I075G01 (scFv) scFv: QVQLVQSGAEVKKPGASVKVSCKTSGYTFTGYNINWVRQAPGQGLEWMGWVSPSNGDTSYAQTFQGRVTMTRDTSISTAYMELSSLKSDDTAVYYCARDHFDTLTGYFRRLDSWGQGTLVTVSSGGGGSGGGGSGGGGSALSSELTQDPEVSVALGQTVTITCQGDSLITHYASWFQQKPGQAPLLVFYSKDKRPSGIPDRFSGSYSGNTASLTITGAQAEDEADYYCNSRDSRGKNHVAFGGGTKLTVLG', 'no binding'),
  ('I061H01 (scFv, also called 1061H01) scFv: QVQLVQSGGGLVKPGGSLRLSCAASGFTFSNAWMSWVRQAPGKGLQWVGRIKSKTDGGTTDYAAPVKGRFTISRDDSKNTLYLQMNSLKTEDTAVYYCTTFNPTYDILTGYYIGGYFQHWGQGTMVTVSSGGGGSGGGGSGGGGSQSVLTQPASVSGSPGQSITISCTGTSSDVGGYNYVSWYQQHPGKAPKLMIYEGSKRPSGVSNRFSGSKSGNTASLTISGLQAEDEADYYCSSYTTRSTRVFGGGTQLTVLG', 'no binding');
